Reported values of GI50 for individual entries
Tested on: MDA-MB-231
PROCEDURE_TEXT: Growth inhibition of human MDA-MB-231 cells by SRB assay
Type: functional
Supply the numeric figure in µM, leaving out any unit text.

COMPOUND_SMILES: Cc1cccc(CN2CCC=C(CCC(=O)NO)C2=O)c1
RECORDED_MEASUREMENT: 8.12
//
COMPOUND_SMILES: COc1cccc(CN2CCC=C(CCC(=O)NO)C2=O)c1
RECORDED_MEASUREMENT: 3.92
//
COMPOUND_SMILES: O=C(CCC1=CCCN(CCCCc2ccc(-c3ccccc3)cc2)C1=O)NO
RECORDED_MEASUREMENT: 1.28
//
COMPOUND_SMILES: Cc1ccc(S(=O)(=O)Nc2ccc(CN3CCC=C(CCC(=O)NO)C3=O)cc2)cc1
RECORDED_MEASUREMENT: 0.56
//
COMPOUND_SMILES: O=C(CCC1=CCCN(Cc2ccc(NC(=O)c3ccccc3)cc2)C1=O)NO
RECORDED_MEASUREMENT: 6.03
//
COMPOUND_SMILES: O=C(CCC1=CCCN(CCc2cccc3ccccc23)C1=O)NO
RECORDED_MEASUREMENT: 2.53

Inquiry: Assign GI50 to the following record: O=C(CCC1=CCCN(CCc2ccc(-c3ccccc3)cc2)C1=O)NO
Reply text: 0.28

Inquiry: Assign GI50 to the following record: O=C(CCC1=CCCN(CCCCc2cccc3ccccc23)C1=O)NO
Reply text: 1.47

Inquiry: Assign GI50 to the following record: Cc1ccccc1CN1CCC=C(CCC(=O)NO)C1=O
Reply text: 4.92

Inquiry: Assign GI50 to the following record: COc1ccc(CN2CCC=C(CCC(=O)NO)C2=O)cc1
Reply text: 3.86
